Test: yeast display, Sf9 membrane polyspecificity reagent, FACS + sequencing; frameworks hold sequencing errors

SEQ TEXT | polyreactivity (PSR sort gate)
QVQLEESGGGLVQAGGSLRLSCAASGSILRRYAMGWYRQAPGKEREFVAAMSYSGSRTYYADSVKGRFTISRDNAKYTVYLQMYSLKPEDTAVYYCAADSYGSRYEYWGLGTQVTVSS | high polyreactivity
QVQLVESGGGLVHAGGSLRLSCAASGRIFNYYAMGWYRQAPGKERALVAAISSGGSTYYADSEKGRFTISRDNAKNTVYLQMHSLKPEDTAVDYCNRVPRGVSRQDDYWGQGTQVTVSS | high polyreactivity

====

Assay: yeast display, Sf9 membrane polyspecificity reagent, FACS + sequencing; frameworks hold sequencing errors
RECORDED METRIC: polyreactivity (PSR sort gate)

Example cases with answers are listed next.
SEQ TEXT | RECORDED METRIC | OBSERVED MEASUREMENT
QVQLVESGGGLVQAGGSLRLSCAASGRIFAQYAMGWYRQAPVKERELVAGIDRRGGSTYYADSVKGRFTISRDNAKNTVYLQMNSLKPEDTAVYYCAAYGTTGVYRGPGYDYWGQATQVTVSS | polyreactivity (PSR sort gate) | low polyreactivity
QVQLVESGGGLVQAGGSLRLSCAASGFTFGSYTMGWYRQAPGKERELVAAITGRGGSTYYADSVKARFTISRDNAKNTVYLQMNSLKPVDTAVYYCAGRRGTTYVGYDYWGQGTQVTVSS | polyreactivity (PSR sort gate) | high polyreactivity
QVQLVESGGGLVQAGGSLRLSCAASGYTFRFNAMGWYRQAPGKEREFVAAIDFGGAGTYYADSVKGRFTISRDNAKNNVYLQMHSLKPEDTAVYYCNARDGVTSEFDYWGQGTQVTVSS | polyreactivity (PSR sort gate) | low polyreactivity
QVQLVESGGGLVQAGGSLPLSCAASGITIYGYAMGWYRQAPGKESELVAAMSTSGGRTYYADSVKGRFTISRDNAKNTVYLQMNSMKPEDTAVYYCAVAPYKGTWDSRSSWRRRAYWGQGTQVTVSS | polyreactivity (PSR sort gate) | high polyreactivity

QUERY: I am curious: what polyreactivity (PSR sort gate) value has been reported for "QVQLVESGGGLVQAGGSLRLSCAASGSTSTGNAMGWYRKAPGKERELVAAITSGGNTYYADSVKGRFTISRDNAKNTVYLQMNSLKPEDTAVYYCAAASPGPWRYDYWGQGTQVTVSS" ?
RESULT: high polyreactivity

====

Assay: yeast display, Sf9 membrane polyspecificity reagent, FACS + sequencing; frameworks hold sequencing errors

SEQ TEXT | polyreactivity (PSR sort gate)
QVQLVESGGGLVQAGGSLRLSCAASGRTFYLNAMGWYRPAPGKERELVAAITRTGGRTYYADSVKGRFTISRDNAKNTVYLQMNSLKPEDTAVYYCAADYVNYSYEYWGQGTQVTVSS | high polyreactivity
QVQLVESGGGLVQAGGSLRLSCAASGRIFDYYAMGWNRQAPGKERELVAAITWSGGNTYYADSVKGRFTISRDNAKNTVYLQMNSLKPEDTAVYYCAAEYYYLNDIYSEYDYWGQGTQVTVSS | high polyreactivity

====

Assay: yeast display, Sf9 membrane polyspecificity reagent, FACS + sequencing; frameworks hold sequencing errors
RECORDED METRIC: polyreactivity (PSR sort gate)

Example cases with answers are listed next.
SEQ TEXT | polyreactivity (PSR sort gate)
QDQLVESGGGLVQAGGSLRLSCAASGRTFYRYAMGWYRQAPGKERELVASITRGTSTNYADSVKGRFTISRDNAKNTVYLQMNSLKPEDTAVYYCNRRIFGGQRMYYWGQGTQVTVSS | high polyreactivity
QVQLVESGGGLVQAGGSLRLSCAASGLIFPGYDMGWYRAAPGKVRELVAAISDSGANTYYADSVKVRFTISRDNAKNTVYLQMNSLKPEDTAVYYCAADSSWGYGTYFGRFDYWGQGTQVTVSS | low polyreactivity
QVQLVESGGGLVQAGGSLRLSCAASGNIFVRYTMGWYRQAPGTERELVARITSGGSTYYADSVKGRFTISRDNAKNTVYLQMNSLKPEDTAVYYCAAAIGTRLYSYYYWGQGTQVTVSS | high polyreactivity
QVQLVESGGGLVQAGGSLRLSCAASGITFGRNTMGWYRQAPGKERELVASISYSGTTTYYADSVKGRFTISRDNAKNTVYLQMNSLKPEDTAVYYCNKRWRYYDMDYWGQGTQVTVSS | low polyreactivity
QVQLEESGGGLVQAGGSLRLSCAASGRTFYSSAMGWYRQPPGKERQLVAAITISGGRTFYADSVKGRSTISRDNAKNTVYLQMNSLKPEDTAVYYCATDTYEPFHFEDDYWGQGTQVTVST | low polyreactivity
QVQLVETGGGLFQAGGSLRLSCAASGSTFVYYAMGWYRQPPGKERELVAAISSGGNTKYADSVKGRFTISRDNAKNTFYLQMNSLKPEDTAVYYCARETQSYYDHDYWGQGTQVTLSS | low polyreactivity
QVQLVESGGGLVQAGGSLRFSCAASGFTFRKNAMGWYRQAPGKERELVAAISRRGGRTYYADSVKGRFTISRDNAKNTVYLQMNSLKPEDTAVYYCNADEYGGSTGRKGRYNYWGQGTQVTVSS | low polyreactivity
QVQLVESGGGLVQAGGSLRLSCAASGRIIYGYTMGWYRQAPGKERELVAVISRGGSTNYADSVKGRFSISRDNAKYTVYLQMNSLKPEDTAVYYCAATTKLPRGNYWYYYWGQGTQVTVSS | high polyreactivity

QUERY: I am curious: what polyreactivity (PSR sort gate) value has been reported for "QVQLVESGGGLVQAGGSLRLSCAAYGRTFIVNTMGWYRQAPGKERQLVAAITARGGRTYYADSVKGRFTISRDNAKNTVYLQMNSLKPEDTAVYYCNARTPPREAERYYWGQGTQVTVSS" ?
RESULT: low polyreactivity

QUERY: Could you do the same for "QFQLVESGGGLVQAGGSLRLSCASSGSIFWYYAMGWYRQAPGKERELVATITSGGRTDYADSVKGRFTISRDNAKNTVYLQMNSLKPEDTAVYFCAAGPRWRPRSYDYWGHGTQVTVSS" , please?
RESULT: high polyreactivity

QUERY: Could you do the same for "QVQLVESGGGLVQAGGSLRLSCAASGLTIQLYAMGWYRQAPGKERELVAAISGSGGRTYYADSVKGRFTISRDNAKNTVYLQMNSLKPEDTAVYYCAARPGSGRSYTSDYWGQGTEVTVSS" , please?
RESULT: high polyreactivity
